# Target or test system: Insulin-degrading enzyme (Homo sapiens)
# Experimental details: recombinant IDE activation, cell-free – biochemical, fluorescence polarization, counter-screen for IDE activator project, dose response (AID 588681)
# Assay conditions: FAbetaB cleavage
Calls of active or inactive are those of the source.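 Rule for the calls: active = half-maximal IDE activation concentration EC50 of 10 µM or lower; inactive = EC50 above 10 µM.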
Select the matching outcome among label 1 = active, label 0 = inactive

stdin: For C#CCOCCOCCOCCNc1nc(N2CCN(C(=O)CCCCCCCCCCNC(=O)[C@H](CO)n3cc(CCCSC)nn3)CC2)nc(N2CCN(C(=O)CCCCCCCCCCNC(=O)[C@H](CCCCN)n3cc(CCO)nn3)CC2)n1 , which call appears in the assay record?
stdout: label 0

stdin: For C#CCOCCOCCOCCNc1nc(N2CCN(C(=O)CCCCCCCCCCNC(=O)Cn3cc(CCCCCN)nn3)CC2)nc(N2CCN(C(=O)CCCCCCCCCCNC(=O)[C@H]([C@@H](C)CC)n3cc(CCCCCN)nn3)CC2)n1 , which call appears in the assay record?
stdout: label 1

stdin: For C#CCOCCOCCOCCNc1nc(N2CCN(C(=O)CCCCCCCCCCNC(=O)[C@H](CCCCN)n3cc(CCO)nn3)CC2)nc(N2CCN(C(=O)CCCCCCCCCCNC(=O)[C@H](CCCN=C(N)N)n3cc(C[C@@H](C)CC)nn3)CC2)n1 , which call appears in the assay record?
stdout: label 1

stdin: For C#CCOCCOCCOCCNc1nc(N2CCN(C(=O)CCCCCCCCCCNC(=O)[C@H]([C@@H](C)CC)n3cc(CCCCCN)nn3)CC2)nc(N2CCN(C(=O)CCCCCCCCCCNC(=O)[C@H]([C@@H](C)CC)n3cc(CCCCN=C(N)N)nn3)CC2)n1 , which call appears in the assay record?
stdout: label 1

stdin: For C#CCOCCOCCOCCNc1nc(N2CCN(C(=O)CCCCCCCCCCNC(=O)Cn3cc(C[C@@H](C)O)nn3)CC2)nc(N2CCN(C(=O)CCCCCCCCCCNC(=O)[C@H](CCCN=C(N)N)n3cc(C[C@@H](C)CC)nn3)CC2)n1 , which call appears in the assay record?
stdout: label 1

stdin: For C#CCOCCOCCOCCNc1nc(N2CCN(C(=O)CCCCCCCCCCNC(=O)Cn3cc(CCCCCN)nn3)CC2)nc(N2CCN(C(=O)CCCCCCCCCCNC(=O)Cn3cc(C[C@@H](C)O)nn3)CC2)n1 , which call appears in the assay record?
stdout: label 0

stdin: For C#CCOCCOCCOCCNc1nc(N2CCN(C(=O)CCCCCCCCCCNC(=O)Cn3cc(CCCCCN)nn3)CC2)nc(N2CCN(C(=O)CCCCCCCCCCNC(=O)[C@H](CO)n3cc(CCCSC)nn3)CC2)n1 , which call appears in the assay record?
stdout: label 0

stdin: For C#CCOCCOCCOCCNc1nc(N2CCN(C(=O)CCCCCCCCCCNC(=O)[C@@H](CCSC)n3cc(CCO)nn3)CC2)nc(N2CCN(C(=O)CCCCCCCCCCNC(=O)[C@H](CO)n3cc(CCCCCN)nn3)CC2)n1 , which call appears in the assay record?
stdout: label 0
